# Target system: Alpha-2C adrenergic receptor (Homo sapiens, UniProt P18825)
# Sequence (P18825 whole entry): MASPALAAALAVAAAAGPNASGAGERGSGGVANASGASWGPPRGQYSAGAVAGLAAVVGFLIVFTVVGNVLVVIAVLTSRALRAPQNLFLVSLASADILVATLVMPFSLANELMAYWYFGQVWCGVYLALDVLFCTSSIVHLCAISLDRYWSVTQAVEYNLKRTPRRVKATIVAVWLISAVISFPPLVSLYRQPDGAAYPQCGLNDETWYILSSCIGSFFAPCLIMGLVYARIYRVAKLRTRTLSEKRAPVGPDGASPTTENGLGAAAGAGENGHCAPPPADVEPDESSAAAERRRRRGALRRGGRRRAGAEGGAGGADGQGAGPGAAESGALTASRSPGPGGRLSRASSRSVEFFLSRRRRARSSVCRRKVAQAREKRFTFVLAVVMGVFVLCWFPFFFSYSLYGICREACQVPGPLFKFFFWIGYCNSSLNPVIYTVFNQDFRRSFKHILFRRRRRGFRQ
# Assay protocol: DRUGMATRIX: Adrenergic Alpha-2C radioligand binding (ligand: [3H] MK-912); further: call rule not given here
# Format: cell membranes, Sf9, Membrane
# Assay conditions: sf9
Assay metric: IC50

>>> value_reported("CN(C)CCOC(c1ccccc1)c1ccccc1 [DIPHENHYDRAMINE]")
"Not Active"
>>> value_reported("CC(=O)O[C@H]1C(=O)[C@@]2(C)[C@H]([C@H](OC(=O)c3ccccc3)[C@]3(O)C[C@H](OC(=O)[C@H](O)[C@@H](NC(=O)c4ccccc4)c4ccccc4)C(C)=C1C3(C)C)[C@]1(OC(C)=O)CO[C@@H]1C[C@@H]2O")
"Not Active"
>>> value_reported("OC(CCCN1CCCCC1)(c1ccccc1)c1ccccc1")
"Not Active"
>>> value_reported("COc1ccc(C(=O)N2CCCC2=O)cc1")
"Not Active"
>>> value_reported("O=C(O)c1cn(-c2ccc(F)cc2)c2cc(N3CCNCC3)c(F)cc2c1=O")
"Not Active"
>>> value_reported("Nc1ccn([C@@H]2O[C@H](CO)[C@@H](O)C2(F)F)c(=O)n1")
"Not Active"
>>> value_reported("C[C@H]1O[C@@H](n2cc(F)c(=O)[nH]c2=O)[C@H](O)[C@@H]1O")
"Not Active"
>>> value_reported("CCN(CC)CCNC(=O)c1cc(S(C)(=O)=O)ccc1OC [TIAPRIDE]")
"Not Active"
>>> value_reported("CC1(C)S[C@@H]2[C@H](NC(=O)[C@H](N)c3ccccc3)C(=O)N2[C@H]1C(=O)O")
"Not Active"
>>> value_reported("COC(=O)CCc1ccc(OCC(O)CNC(C)C)cc1 (configuration not stated)")
"Not Active"
>>> value_reported("NNc1nncc2ccccc12 [HYDRALAZINE]")
"Not Active"
>>> value_reported("C[C@@H](CO)NC(=O)[C@@H]1C=C2c3cccc4[nH]cc(c34)C[C@H]2N(C)C1")
"Not Active"
>>> value_reported("O=C1C(CC[S+]([O-])c2ccccc2)C(=O)N(c2ccccc2)N1c1ccccc1 (configuration not stated)")
"Not Active"
>>> value_reported("CCCCNc1ccc(C(=O)OCCN(C)C)cc1")
"Not Active"
>>> value_reported("CC(C)NCC(O)c1ccc(O)c(O)c1 (configuration not stated)")
"Not Active"
>>> value_reported("CCCN(CCC)S(=O)(=O)c1ccc(C(=O)O)cc1")
"Not Active"
>>> value_reported("O=c1cc(N2CCOCC2)oc2c(-c3ccccc3)cccc12")
"Not Active"
>>> value_reported("NC(=O)N1C(=O)/C(=C(\\O)c2cccs2)c2cc(Cl)ccc21")
"Not Active"
>>> value_reported("O=C1Nc2ccc(Cl)cc2C(c2ccccc2Cl)=NC1O (configuration not stated)")
"Not Active"
>>> value_reported("NCCCC(O)(P(=O)(O)O)P(=O)(O)O")
"Not Active"
>>> value_reported("CC(C)NCC(O)c1ccc(NS(C)(=O)=O)cc1 (configuration not stated)")
"Not Active"
>>> value_reported("CCN1CCC[C@H]1CNC(=O)c1cc(S(N)(=O)=O)ccc1OC [LEVOSULPIRIDE]")
"Not Active"
>>> value_reported("CC(C)=CCC/C(C)=C/CO")
"Not Active"
>>> value_reported("CN(C)[C@@H]1C(O)=C(C(N)=O)C(=O)[C@@]2(O)C(O)=C3C(=O)c4c(O)ccc(Cl)c4[C@@](C)(O)[C@H]3C[C@@H]12")
"Not Active"
>>> value_reported("Cn1c(=O)c2nc[nH]c2n(C)c1=O.O")
"Not Active"
>>> value_reported("O=C(Nc1ccc(Br)cc1)c1cc(Br)cc(Br)c1O")
"Not Active"
>>> value_reported("Cn1c(=O)c2[nH]cnc2n(C)c1=O.Cn1c(=O)c2[nH]cnc2n(C)c1=O.NCCN")
"Not Active"
>>> value_reported("CN(C/C=C/C#CC(C)(C)C)Cc1cccc2ccccc12")
"Not Active"
>>> value_reported("Brc1c(NC2=NCCN2)ccc2nccnc12")
"Not Active"
>>> value_reported("COc1cc([C@@H]2c3cc4c(cc3[C@@H](O[C@@H]3O[C@@H]5CO[C@@H](C)O[C@H]5[C@H](O)[C@H]3O)[C@H]3COC(=O)[C@H]23)OCO4)cc(OC)c1O [ETOPOSIDE]")
"Not Active"
>>> value_reported("CCC1(CCC(C)C)C(=O)NC(=O)NC1=O")
"Not Active"
>>> value_reported("CN1[C@@H]2CC[C@H]1C[C@@H](OC(=O)C(CO)c1ccccc1)C2 (some centres not stated)")
"Not Active"
